# Tested on: MOLT-4
# method-notes: NCI tumour cell line growth inhibition, 48 h
Activity calls are given as the source filed them. No stated cut-off is given here; in the data, active = GI50 up to about 1.1 µM and inactive = higher.
# GI50 listing for each entry below

Use these answered entries as a reference point.
CC[C@H](C)c1occ2c(O)c(C(=O)O)c(=O)cc-2c1C    19.8 µM (inactive)
CCOC(=O)c1nc2ccccc2nc1NCc1ccc(OC)cc1    > 100 µM (inactive)
Cn1cnc([N+](=O)[O-])c1Sc1nccn1-c1ccccc1    21.5 µM (inactive)
CC(C(O)c1ccccc1)N(C)/N=N/c1nc2c([nH]1)c(=O)n(C)c(=O)n2C (configuration not stated)    38.3 µM (inactive)
CCC(C)(C)NS(=O)(=O)c1ccccc1    > 100 µM (inactive)
Cc1cc2nc(N)n[n+]([O-])c2cc1C    > 100 µM (inactive)

Read the next record carefully.
In: Consider the compound `Cn1c(=O)oc2nc(-c3ccccc3)cc(C(F)(F)F)c21` and give its recorded GI50.
Out: 14.3 µM (inactive)
